Source of measurements: ChEMBL document CHEMBL1773029

Target: Mu-type opioid receptor (Homo sapiens) (UniProt P35372)
Sequence (P35372 whole entry): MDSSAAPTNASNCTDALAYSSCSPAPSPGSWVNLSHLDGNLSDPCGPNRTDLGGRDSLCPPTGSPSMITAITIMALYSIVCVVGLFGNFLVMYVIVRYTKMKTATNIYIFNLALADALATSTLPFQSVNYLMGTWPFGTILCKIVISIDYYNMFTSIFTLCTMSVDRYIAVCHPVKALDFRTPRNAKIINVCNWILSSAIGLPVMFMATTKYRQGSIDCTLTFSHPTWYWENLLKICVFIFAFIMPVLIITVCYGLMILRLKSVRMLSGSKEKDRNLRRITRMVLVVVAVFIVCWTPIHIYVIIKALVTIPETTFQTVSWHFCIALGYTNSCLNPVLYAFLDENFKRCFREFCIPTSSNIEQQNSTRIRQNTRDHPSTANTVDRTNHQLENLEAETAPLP
Experiment: Antagonist activity at human mu opioid receptor expressed in CHO cells assessed as inhibition of DAMGO stimulated [35S]GTPgammaS binding
Assay type: functional, cell-based
Hi there, I'd appreciate the recorded log10 Ke for every entry that follows.
Base-10 log of Ke, unit nM.

[Q] Return value of log10 Ke for input C[C@@H]1CN(c2cccc(O)c2)[C@@H](C)CN1CCCc1ccccc1 , no commentary.
[A] 0.79

[Q] Return value of log10 Ke for input C[C@H]1CN(C)CC[C@@]1(C)c1cccc(O)c1 (relative stereo) , no commentary.
[A] 1.47

[Q] Return value of log10 Ke for input C[C@H]1CN(CCCc2ccccc2)CC[C@@]1(C)c1cccc(O)c1 , no commentary.
[A] -1.00

[Q] Return value of log10 Ke for input C[C@H]1CN(c2cccc(O)c2)[C@@H](C)CN1CCCc1ccccc1 , no commentary.
[A] 1.25

[Q] Return value of log10 Ke for input C[C@@H]1CN(CCCc2ccccc2)[C@@H](C)CN1c1cccc(O)c1 , no commentary.
[A] 1.26

[Q] Return value of log10 Ke for input C[C@@H]1CN(CCCc2ccccc2)CCN1c1cccc(O)c1 , no commentary.
[A] 0.00

[Q] Return value of log10 Ke for input C[C@H]1CN(CCCc2ccccc2)C[C@H](C)N1c1cccc(O)c1 , no commentary.
[A] 3.22

[Q] Return value of log10 Ke for input C[C@H]1CN(CCCc2ccccc2)CCN1c1cccc(O)c1 , no commentary.
[A] -0.06

[Q] Return value of log10 Ke for input Oc1cccc(N2CCN(CCCc3ccccc3)CC2)c1 , no commentary.
[A] 0.93

[Q] Return value of log10 Ke for input C[C@H]1CN(C)CCN1c1cccc(O)c1 , no commentary.
[A] 2.71

###

Target: Delta-type opioid receptor (Homo sapiens) (UniProt P41143)
Sequence (P41143 whole entry): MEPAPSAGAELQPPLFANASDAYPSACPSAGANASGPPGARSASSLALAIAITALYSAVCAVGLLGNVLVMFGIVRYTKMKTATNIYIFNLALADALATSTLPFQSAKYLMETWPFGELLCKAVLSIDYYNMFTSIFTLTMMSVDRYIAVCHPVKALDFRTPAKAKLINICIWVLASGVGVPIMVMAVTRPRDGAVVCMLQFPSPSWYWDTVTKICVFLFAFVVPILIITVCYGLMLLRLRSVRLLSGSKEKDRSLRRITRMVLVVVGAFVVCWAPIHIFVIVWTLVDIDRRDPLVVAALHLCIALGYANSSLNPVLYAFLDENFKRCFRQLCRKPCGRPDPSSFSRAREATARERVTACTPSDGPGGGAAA
Experiment: Antagonist activity at human delta opioid receptor expressed in CHO cells assessed as inhibition of DPDPE stimulated [35S]GTPgammaS binding
Format: functional, cell-based
endpoint.label: log10 of Ke (log10 of the value in nM)
Base-10 log of Ke, unit nM.

[Q] Return value of log10 of Ke for input C[C@@H]1CN(CCCc2ccccc2)CCN1c1cccc(O)c1 , no commentary.
[A] 0.84

[Q] Return value of log10 of Ke for input C[C@@H]1CN(c2cccc(O)c2)[C@@H](C)CN1CCCc1ccccc1 , no commentary.
[A] 1.74

[Q] Return value of log10 of Ke for input C[C@H]1CN(c2cccc(O)c2)[C@@H](C)CN1CCCc1ccccc1 , no commentary.
[A] 1.37

[Q] Return value of log10 of Ke for input C[C@H]1CN(CCCc2ccccc2)CC[C@@]1(C)c1cccc(O)c1 , no commentary.
[A] -0.05

[Q] Return value of log10 of Ke for input C[C@@H]1CN(CCCc2ccccc2)[C@@H](C)CN1c1cccc(O)c1 , no commentary.
[A] 2.26

[Q] Return value of log10 of Ke for input Oc1cccc(N2CCN(CCCc3ccccc3)CC2)c1 , no commentary.
[A] 1.54

[Q] Return value of log10 of Ke for input C[C@H]1CN(CCCc2ccccc2)C[C@H](C)N1c1cccc(O)c1 , no commentary.
[A] 3.95

[Q] Return value of log10 of Ke for input C[C@H]1CN(CCCc2ccccc2)CCN1c1cccc(O)c1 , no commentary.
[A] 1.13

###

Target: Kappa-type opioid receptor (Homo sapiens) (UniProt P41145)
Sequence (P41145 whole entry): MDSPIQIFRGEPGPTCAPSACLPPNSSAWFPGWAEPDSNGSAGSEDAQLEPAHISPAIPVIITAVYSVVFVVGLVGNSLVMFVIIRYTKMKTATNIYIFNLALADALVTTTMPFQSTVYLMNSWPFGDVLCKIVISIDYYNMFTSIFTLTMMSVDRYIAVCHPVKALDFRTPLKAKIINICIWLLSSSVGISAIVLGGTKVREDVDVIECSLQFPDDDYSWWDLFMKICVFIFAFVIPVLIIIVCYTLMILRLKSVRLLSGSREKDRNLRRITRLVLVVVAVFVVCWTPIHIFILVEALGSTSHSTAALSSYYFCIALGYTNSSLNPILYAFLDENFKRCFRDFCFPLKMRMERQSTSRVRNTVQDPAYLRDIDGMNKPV
Assay: Antagonist activity at human kappa opioid receptor expressed in CHO cells assessed as inhibition of U69,593 stimulated [35S]GTPgammaS binding
Format: functional, cell-based
endpoint.label: Ke (nM)
Just the number please, in nM, no unit attached.

[Q] Return value of Ke for input C[C@H]1CN(CCCc2ccccc2)CCN1c1cccc(O)c1 , no commentary.
[A] 4.09

[Q] Return value of Ke for input C[C@H]1CN(CCCc2ccccc2)C[C@H](C)N1c1cccc(O)c1 , no commentary.
[A] 123

[Q] Return value of Ke for input C[C@@H]1CN(CCCc2ccccc2)[C@@H](C)CN1c1cccc(O)c1 , no commentary.
[A] 22.9

[Q] Return value of Ke for input C[C@@H]1CN(CCCc2ccccc2)CCN1c1cccc(O)c1 , no commentary.
[A] 1.57

[Q] Return value of Ke for input Oc1cccc(N2CCN(CCCc3ccccc3)CC2)c1 , no commentary.
[A] 36.8

[Q] Return value of Ke for input C[C@H]1CN(C)CCN1c1cccc(O)c1 , no commentary.
[A] 194

[Q] Return value of Ke for input C[C@H]1CN(CCCc2ccccc2)CC[C@@]1(C)c1cccc(O)c1 , no commentary.
[A] 0.88

[Q] Return value of Ke for input C[C@@H]1CN(c2cccc(O)c2)[C@@H](C)CN1CCCc1ccccc1 , no commentary.
[A] 4.25

[Q] Return value of Ke for input C[C@H]1CN(c2cccc(O)c2)[C@@H](C)CN1CCCc1ccccc1 , no commentary.
[A] 19.5
